# experimental target: GKRP-P446L (Homo sapiens, UniProt Q14397, P446L)
# Construct: FLAG; made in house; host or cells: Escherichia coli
# Sequence (Q14397 1-625 P446L): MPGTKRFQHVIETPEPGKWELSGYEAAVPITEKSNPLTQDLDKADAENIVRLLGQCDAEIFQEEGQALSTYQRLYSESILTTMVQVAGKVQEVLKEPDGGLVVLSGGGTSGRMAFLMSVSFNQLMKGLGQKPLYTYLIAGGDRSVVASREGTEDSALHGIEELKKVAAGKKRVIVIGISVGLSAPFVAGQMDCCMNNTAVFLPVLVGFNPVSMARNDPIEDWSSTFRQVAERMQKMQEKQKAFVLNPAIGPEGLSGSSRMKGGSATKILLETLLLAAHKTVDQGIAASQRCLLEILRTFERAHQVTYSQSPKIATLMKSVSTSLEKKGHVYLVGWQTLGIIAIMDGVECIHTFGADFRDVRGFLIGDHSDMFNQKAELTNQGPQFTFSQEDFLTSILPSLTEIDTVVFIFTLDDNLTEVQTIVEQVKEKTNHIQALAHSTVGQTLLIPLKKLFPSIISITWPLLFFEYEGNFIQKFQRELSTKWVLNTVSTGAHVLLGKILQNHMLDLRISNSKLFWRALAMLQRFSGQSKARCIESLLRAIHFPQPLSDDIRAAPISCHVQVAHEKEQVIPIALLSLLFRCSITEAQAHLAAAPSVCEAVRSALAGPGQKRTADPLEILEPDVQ
# assay comment: Ligand binding to free GKRP-P446L measured by TF of GKRP
# condition set: 0.3 μM GKRP-P446L, D-glucose alone, 20°C; read-out: S0.5
measured endpoint: Kd (mM)
Just the number please, in mM, no unit attached.

Return Kd for the following compound: OC[C@H]1OC(O)[C@H](O)[C@@H](O)[C@@H]1O (stereo partly shown) 27

====

# experimental target: GKRP-P446L (Homo sapiens, UniProt Q14397, P446L)
# Construct: FLAG; made in house; host or cells: Escherichia coli
# Sequence (Q14397 1-625 P446L): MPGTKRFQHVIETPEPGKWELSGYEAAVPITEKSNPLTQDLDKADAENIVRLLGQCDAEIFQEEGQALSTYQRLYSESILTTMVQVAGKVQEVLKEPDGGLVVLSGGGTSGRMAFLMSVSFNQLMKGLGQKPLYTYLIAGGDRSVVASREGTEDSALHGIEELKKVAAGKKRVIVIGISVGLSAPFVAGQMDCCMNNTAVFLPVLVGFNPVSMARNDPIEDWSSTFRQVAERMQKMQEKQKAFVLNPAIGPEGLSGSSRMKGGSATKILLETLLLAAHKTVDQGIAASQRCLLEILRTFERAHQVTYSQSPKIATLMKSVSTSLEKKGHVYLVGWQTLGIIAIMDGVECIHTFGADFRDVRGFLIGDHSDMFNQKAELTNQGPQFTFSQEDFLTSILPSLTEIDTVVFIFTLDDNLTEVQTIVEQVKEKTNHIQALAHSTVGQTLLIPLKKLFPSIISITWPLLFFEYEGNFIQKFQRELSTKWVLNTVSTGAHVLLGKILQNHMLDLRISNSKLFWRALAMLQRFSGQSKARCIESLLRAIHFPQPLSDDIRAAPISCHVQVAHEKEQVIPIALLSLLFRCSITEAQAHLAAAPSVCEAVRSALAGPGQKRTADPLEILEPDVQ
# assay comment: Ligand binding to free GKRP-P446L measured by TF of GKRP
# condition set: 0.3 μM GKRP-P446L, ligand alone, 20°C; read-out: S0.5
measured endpoint: pKd
Quick note: pKd values are minus log10 of concentrations in mol/L.

Return pKd for the following compound: O=C(COP(=O)([O-])[O-])[C@@H](O)[C@H](O)[C@H](O)CO.[Na+].[Na+] [F1P, D-fructose 1-phosphate sodium salt] 3.86

Return pKd for the following compound: O=C(CO)[C@@H](O)[C@H](O)[C@H](O)COP(=O)([O-])[O-].[Na+].[Na+] [F6P, D-fructose 6-phosphate disodium salt] 3.62

These data points were gathered from paper PMC4109836.
